# Target: T1, human CD112R on Jurkat CD112R effector cells (human, UniProt Q6DKI7 1-326)
# T1 sequence (looked up): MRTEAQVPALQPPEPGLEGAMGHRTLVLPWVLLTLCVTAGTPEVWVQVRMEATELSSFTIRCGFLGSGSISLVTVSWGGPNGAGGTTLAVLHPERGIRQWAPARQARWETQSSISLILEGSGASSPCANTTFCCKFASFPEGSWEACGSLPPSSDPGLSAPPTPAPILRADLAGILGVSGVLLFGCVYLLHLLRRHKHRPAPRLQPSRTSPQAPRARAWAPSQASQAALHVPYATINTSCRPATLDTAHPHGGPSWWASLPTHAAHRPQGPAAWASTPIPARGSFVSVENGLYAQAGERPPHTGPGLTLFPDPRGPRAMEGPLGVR
# Assay Notes: cell-based or functional assay
EC50, CD112R/CD112 reporter strictly less than 0.03 µg/mL = True. Otherwise False.

# count of solved cases: 8
Binder	Class Name
Hu44 (antibody, IgG4, V domains shown) VH: EVQLVESGGGLVKPGGSLRLSCAASGFTFSSYHMSWVRQAPGKGLELVSAINSNVISTYYLDTVKGRFTISRDNAKNSLYLQMNSLRAEDTAVYYCARHEDYYGFAMDYWGQGTLVTVSS VL: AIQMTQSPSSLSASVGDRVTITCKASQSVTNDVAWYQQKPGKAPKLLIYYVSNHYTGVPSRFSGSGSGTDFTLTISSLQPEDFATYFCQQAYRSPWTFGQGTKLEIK	False
Hu56 (antibody, IgG4, V domains shown, humanized IgG4) VH: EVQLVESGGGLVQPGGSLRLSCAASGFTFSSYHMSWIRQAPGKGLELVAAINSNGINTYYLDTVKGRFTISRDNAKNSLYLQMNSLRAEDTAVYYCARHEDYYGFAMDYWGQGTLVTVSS VL: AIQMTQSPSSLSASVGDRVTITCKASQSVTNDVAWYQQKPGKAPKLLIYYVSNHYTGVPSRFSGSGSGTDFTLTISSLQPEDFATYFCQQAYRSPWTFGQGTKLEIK	True
Hu38 (antibody, IgG4, V domains shown) VH: EVQLVESGGGLVQPGGSLRLSCAASGFTFSSYHMSWVRQAPGKGLELVSAINSNVISTYYLDTVKGRFTISRDNAKNSLYLQMNSLRAEDTAVYYCARHEDYYGFAMDYWGQGTLVTVSS VL: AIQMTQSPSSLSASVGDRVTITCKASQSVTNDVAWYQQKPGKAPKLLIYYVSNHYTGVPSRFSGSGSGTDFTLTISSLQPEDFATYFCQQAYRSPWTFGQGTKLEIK	False
Hu5 (antibody, IgG4, V domains shown, humanized IgG4; also called Hu-05) VH: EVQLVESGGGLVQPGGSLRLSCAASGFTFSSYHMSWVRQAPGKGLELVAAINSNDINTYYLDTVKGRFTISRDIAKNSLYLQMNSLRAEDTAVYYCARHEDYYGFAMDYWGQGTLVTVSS VL: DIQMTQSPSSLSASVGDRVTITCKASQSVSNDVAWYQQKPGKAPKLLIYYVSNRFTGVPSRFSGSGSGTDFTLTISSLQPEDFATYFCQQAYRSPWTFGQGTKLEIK	False
Hu30 (antibody, IgG4, V domains shown, humanized IgG4) VH: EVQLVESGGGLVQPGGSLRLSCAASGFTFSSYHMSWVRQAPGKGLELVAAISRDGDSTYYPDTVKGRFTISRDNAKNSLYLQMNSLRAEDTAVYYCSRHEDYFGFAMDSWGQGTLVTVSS VL: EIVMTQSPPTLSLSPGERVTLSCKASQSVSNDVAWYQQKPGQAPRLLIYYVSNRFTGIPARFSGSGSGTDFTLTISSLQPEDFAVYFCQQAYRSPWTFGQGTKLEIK	False
Hu11 (antibody, IgG4, V domains shown, humanized IgG4) VH: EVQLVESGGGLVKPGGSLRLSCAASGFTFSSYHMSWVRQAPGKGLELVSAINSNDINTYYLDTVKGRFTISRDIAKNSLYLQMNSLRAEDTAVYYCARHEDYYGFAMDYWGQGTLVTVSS VL: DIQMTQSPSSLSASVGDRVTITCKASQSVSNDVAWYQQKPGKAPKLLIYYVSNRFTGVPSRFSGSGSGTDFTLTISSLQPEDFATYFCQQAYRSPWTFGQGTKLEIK	False
Hu2 (antibody, IgG4, V domains shown, humanized IgG4; also called Hu-02) VH: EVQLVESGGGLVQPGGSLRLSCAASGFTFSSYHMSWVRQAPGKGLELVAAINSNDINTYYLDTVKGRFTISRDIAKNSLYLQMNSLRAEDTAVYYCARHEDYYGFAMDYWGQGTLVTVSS VL: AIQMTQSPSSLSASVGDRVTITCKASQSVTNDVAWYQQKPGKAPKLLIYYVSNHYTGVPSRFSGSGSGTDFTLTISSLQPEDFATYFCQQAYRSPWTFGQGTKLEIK	False
Hu45 (antibody, IgG4, V domains shown) VH: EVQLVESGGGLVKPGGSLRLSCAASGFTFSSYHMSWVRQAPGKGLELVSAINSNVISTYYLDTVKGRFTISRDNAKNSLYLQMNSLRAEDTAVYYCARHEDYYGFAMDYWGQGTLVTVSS VL: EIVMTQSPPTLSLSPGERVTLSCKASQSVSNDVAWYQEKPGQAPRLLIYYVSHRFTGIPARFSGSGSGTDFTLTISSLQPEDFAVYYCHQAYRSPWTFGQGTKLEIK	True

Next, consider the following binder.
Input: Take the binder Hu60 (antibody, IgG4, V domains shown, humanized IgG4) VH: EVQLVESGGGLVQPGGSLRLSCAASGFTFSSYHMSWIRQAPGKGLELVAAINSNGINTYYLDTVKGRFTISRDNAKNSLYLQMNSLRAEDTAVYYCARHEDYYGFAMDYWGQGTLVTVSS VL: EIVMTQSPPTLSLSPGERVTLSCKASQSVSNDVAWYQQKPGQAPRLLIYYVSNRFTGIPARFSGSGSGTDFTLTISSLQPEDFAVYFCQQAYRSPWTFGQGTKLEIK and say whether its EC50, CD112R/CD112 reporter is less than 0.03 µg/mL.
Output: True
